target: T1, L1 (DV1-GV4), soluble human Vδ1/Vγ4 γδ TCR heterodimer in leucine zipper format (human); test: DELFIA, 100 nM biotinylated L1
T1 construct: Biotinylated in the DELFIA ranking; also called Antigen L1 (TRDV1/TRGV4); human DV1-GV4; not shown: gamma chain: Vγ4 (TRGV4) domain on a TCR constant region, leucine zipper, histidine tag
T1 sequence (main, as listed by the source): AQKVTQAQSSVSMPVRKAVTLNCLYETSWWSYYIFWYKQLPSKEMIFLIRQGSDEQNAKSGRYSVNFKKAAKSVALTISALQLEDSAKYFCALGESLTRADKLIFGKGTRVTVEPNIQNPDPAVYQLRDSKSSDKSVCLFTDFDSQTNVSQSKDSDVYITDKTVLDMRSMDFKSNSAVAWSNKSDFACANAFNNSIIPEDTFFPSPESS
reportedProperty: DELFIA signal at 100 nM L1 (fluorescence units)

>>> assayresult("1245_P01_B07 (antibody, IgG1, V domains shown, IgG1) VH: EVQLLESGGGLVKPGGSLRLSCAASGFTFSDYYMSWIRQAPGKGLEWVSYISSSGSTIYYADSVKGRFTISRDNAKNSLYLQMNSLRAEDTAVYYCARENYLNAFDIWGRGTLVTVSS VL: DIQMTQSPSSLSASVGDRVTITCRTSQSLSNYLNWYQQKPGKAPKLLIYAASSLQSGVPSRFSGSGSGTDFTLTISSLQPEDFATYYCQQSYSTPLTFGGGTKLEIK")
64300
>>> assayresult("1251_P02_C05 (antibody, IgG1, V domains shown, IgG1) VH: EVQLLESGGGLVQPGGSLRLSCAASGFTFSSYAMSWVRQAPGKGLEWVSAISGGGGTTYSSDSVKGRFTISRDNSKNTLYLQMNSLRAEDTAVYYCARDSGVAFDIWGQGTLVTVSS VL: DIQMTQSPSFLSASVGDRVTITCRASQNIRTWLAWYQQKPGRAPKLLIYDASSLESGVPSRFSGSGSGTDFTLTISSLQPEDFATYYCQQFKRYPPTFGLGTKVEIK")
65300
